As a worked illustration, we turn to pKi data collected for 5-HT2A receptor (Homo sapiens (Human)).
pKi: −log10 of the molar value.

Compound	Sign Qualifier	pKi
c1cc2c3c(csc3c1)CC1CN(CCCOc3ccc4c(c3)OCO4)CCN21 (stereo not shown)	<	5.00
O=C(NCCN1CCN2c3cccc4scc(c34)CC2C1)c1ccc(F)cc1 (stereo not shown)	=	5.82
O=c1ccc2ccc(OCCCN3CCN4c5cccc6scc(c56)CC4C3)cc2[nH]1 (stereo not shown)	=	6.12
O=C(N[C@H]1CC[C@H](CCN2CCN3c4cccc5scc(c45)CC3C2)CC1)N1CCCCC1 (stereo partly shown)	=	6.35
COc1cc2c(cc1OC)C(=O)N(CCCCN1CCN3c4cccc5scc(c45)CC3C1)C2 (stereo not shown)	=	6.80
O=C1NCCN1c1cccc(CN2CCN3c4cccc5scc(c45)CC3C2)c1 (stereo not shown)	=	6.16
CN(C)C(=O)N[C@H]1CC[C@H](CCN2CCN3c4cccc5scc(c45)C[C@@H]3C2)CC1 [(+)-I-27]	=	6.35
CN(C)C(=O)N[C@H]1CC[C@H](CCN2CCN3c4cccc5scc(c45)CC3C2)CC1 (single isomer, unassigned; (-)) [(−)-I-27]	=	5.64
c1ccc(OCCN2CCN3c4cccc5scc(c45)CC3C2)cc1 (stereo not shown)	=	5.77
O=C1c2ccccc2CN1CCCCN1CCN2c3cccc4scc(c34)CC2C1 (stereo not shown)	=	5.92

###

Molecular target: 5-HT2A receptor (Homo sapiens (Human))
Assay: 5-HT2A receptor β-arrestin2 BRET (recruitment)
Format: cell-based
Conditions: 5-HT2A receptor, β-arrestin2 pathway
Quick reference for Emax among some compounds

Compound	Unit Info	Emax
OCCN1CCN2c3cccc4scc(c34)CC2C1 (stereo not shown)	%	90
O=C(N[C@H]1CC[C@H](CCN2CCN3c4cccc5scc(c45)CC3C2)CC1)N1CCCCC1 (stereo partly shown)	%	21.8
CCCN1CCN2c3cccc4scc(c34)CC2C1 (stereo not shown)	%	66.3
Fc1ccc(-c2cncc(CN3CCN4c5cccc6scc(c56)CC4C3)c2)cc1 (stereo not shown)	%	84.2

###

Target: 5-HT2A receptor (Homo sapiens (Human))
Assay: 5-HT2A receptor Gαq BRET (G protein trimer dissociation);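 further: cells transfected with 5-HT2A receptor, Gαq-Rluc, Gβ3 and Gγ9-GFP, BRET read with coelenterazine 400a (5 µM) across a compound dilution series in duplicate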
Type: cell-based
Conditions: read-out: Gαq BRET EC50

Compound	Unit Info	EC50
Fc1ccc(CCN2CCN3c4cccc5scc(c45)CC3C2)cc1 (stereo not shown)	nM	1100

###

Target: 5-HT2A receptor (Homo sapiens (Human))
Experiment: 5-HT2A receptor β-arrestin2 BRET (recruitment)
Format: cell-based
Settings: 5-HT2A receptor, β-arrestin2 pathway

Molecule	Emax
c1csc(CCN2CCN3c4cccc5scc(c45)CC3C2)c1 (centres unmarked)	45.4%
O=C(CN1CCN2c3cccc4scc(c34)CC2C1)c1ccc(F)cc1 (centres unmarked)	71.6%
O=C1c2ccccc2CN1CCCCN1CCN2c3cccc4scc(c34)CC2C1 (centres unmarked)	64.6%
O=c1ccc2ccc(OCCCN3CCN4c5cccc6scc(c56)CC4C3)cc2[nH]1 (centres unmarked)	92.2%
O=C(NCCN1CCN2c3cccc4scc(c34)CC2C1)c1ccc(F)cc1 (centres unmarked)	5.7%

###

Molecular target: 5-HT2A receptor (Homo sapiens (Human), UniProt P28223)
Sequence (P28223 whole entry): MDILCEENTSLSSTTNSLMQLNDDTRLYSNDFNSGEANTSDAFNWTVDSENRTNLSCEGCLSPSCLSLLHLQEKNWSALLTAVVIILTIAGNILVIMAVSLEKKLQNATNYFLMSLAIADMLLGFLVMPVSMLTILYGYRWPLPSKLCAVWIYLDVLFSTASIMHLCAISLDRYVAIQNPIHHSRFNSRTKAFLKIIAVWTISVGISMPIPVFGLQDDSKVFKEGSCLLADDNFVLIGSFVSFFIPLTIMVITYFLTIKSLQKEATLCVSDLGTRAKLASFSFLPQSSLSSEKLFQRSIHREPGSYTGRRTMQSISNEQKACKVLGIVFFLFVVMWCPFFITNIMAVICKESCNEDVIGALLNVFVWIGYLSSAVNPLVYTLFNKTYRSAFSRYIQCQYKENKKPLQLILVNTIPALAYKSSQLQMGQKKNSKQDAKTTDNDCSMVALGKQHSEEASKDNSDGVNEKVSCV
Assay: 5-HT2A receptor β-arrestin2 BRET (recruitment);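 further: cells co-expressing Rluc-tagged 5-HT2A receptor, GRK2 and GFP2-tagged β-arrestin2, read by BRET with coelenterazine 400a (5 µM) across graded drug concentrations in duplicate, signal reflecting β-arrestin2 membrane recruitment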
Type: cell-based
Conditions: read-out: β-arrestin2 BRET EC50
pEC50: −log10 of the molar value.

Compound	Test Target	pEC50
Fc1ccc(CCN2CCN3c4cccc5scc(c45)CC3C2)cc1 (stereo not shown)	5-HT2A receptor (Homo sapiens (Human), UniProt P28223)	6.02
